Biological target: NEK7 (Homo sapiens (Human), UniProt Q8TDX7+Q96SW2)
Sequence (Q8TDX7 whole entry): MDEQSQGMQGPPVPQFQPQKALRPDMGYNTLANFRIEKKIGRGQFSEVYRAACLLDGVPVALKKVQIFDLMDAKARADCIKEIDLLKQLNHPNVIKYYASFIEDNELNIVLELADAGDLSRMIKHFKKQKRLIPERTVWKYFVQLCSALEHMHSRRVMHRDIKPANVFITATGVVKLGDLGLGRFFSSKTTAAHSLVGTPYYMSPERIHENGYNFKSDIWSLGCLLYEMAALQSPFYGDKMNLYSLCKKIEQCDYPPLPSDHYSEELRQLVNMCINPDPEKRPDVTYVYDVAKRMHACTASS
Sequence (Q96SW2 whole entry): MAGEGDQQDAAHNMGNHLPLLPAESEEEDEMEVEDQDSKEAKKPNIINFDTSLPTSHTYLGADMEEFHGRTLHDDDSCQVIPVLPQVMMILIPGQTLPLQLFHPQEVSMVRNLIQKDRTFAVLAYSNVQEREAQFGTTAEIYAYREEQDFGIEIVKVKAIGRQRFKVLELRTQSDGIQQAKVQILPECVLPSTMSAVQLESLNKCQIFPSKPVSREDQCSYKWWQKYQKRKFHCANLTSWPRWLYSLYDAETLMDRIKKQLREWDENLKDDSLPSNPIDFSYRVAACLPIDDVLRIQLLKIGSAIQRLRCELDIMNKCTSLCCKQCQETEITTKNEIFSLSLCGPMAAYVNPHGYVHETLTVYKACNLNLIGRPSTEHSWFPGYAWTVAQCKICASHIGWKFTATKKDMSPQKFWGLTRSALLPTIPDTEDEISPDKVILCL
Sequence (Q16531 2-1140 partner): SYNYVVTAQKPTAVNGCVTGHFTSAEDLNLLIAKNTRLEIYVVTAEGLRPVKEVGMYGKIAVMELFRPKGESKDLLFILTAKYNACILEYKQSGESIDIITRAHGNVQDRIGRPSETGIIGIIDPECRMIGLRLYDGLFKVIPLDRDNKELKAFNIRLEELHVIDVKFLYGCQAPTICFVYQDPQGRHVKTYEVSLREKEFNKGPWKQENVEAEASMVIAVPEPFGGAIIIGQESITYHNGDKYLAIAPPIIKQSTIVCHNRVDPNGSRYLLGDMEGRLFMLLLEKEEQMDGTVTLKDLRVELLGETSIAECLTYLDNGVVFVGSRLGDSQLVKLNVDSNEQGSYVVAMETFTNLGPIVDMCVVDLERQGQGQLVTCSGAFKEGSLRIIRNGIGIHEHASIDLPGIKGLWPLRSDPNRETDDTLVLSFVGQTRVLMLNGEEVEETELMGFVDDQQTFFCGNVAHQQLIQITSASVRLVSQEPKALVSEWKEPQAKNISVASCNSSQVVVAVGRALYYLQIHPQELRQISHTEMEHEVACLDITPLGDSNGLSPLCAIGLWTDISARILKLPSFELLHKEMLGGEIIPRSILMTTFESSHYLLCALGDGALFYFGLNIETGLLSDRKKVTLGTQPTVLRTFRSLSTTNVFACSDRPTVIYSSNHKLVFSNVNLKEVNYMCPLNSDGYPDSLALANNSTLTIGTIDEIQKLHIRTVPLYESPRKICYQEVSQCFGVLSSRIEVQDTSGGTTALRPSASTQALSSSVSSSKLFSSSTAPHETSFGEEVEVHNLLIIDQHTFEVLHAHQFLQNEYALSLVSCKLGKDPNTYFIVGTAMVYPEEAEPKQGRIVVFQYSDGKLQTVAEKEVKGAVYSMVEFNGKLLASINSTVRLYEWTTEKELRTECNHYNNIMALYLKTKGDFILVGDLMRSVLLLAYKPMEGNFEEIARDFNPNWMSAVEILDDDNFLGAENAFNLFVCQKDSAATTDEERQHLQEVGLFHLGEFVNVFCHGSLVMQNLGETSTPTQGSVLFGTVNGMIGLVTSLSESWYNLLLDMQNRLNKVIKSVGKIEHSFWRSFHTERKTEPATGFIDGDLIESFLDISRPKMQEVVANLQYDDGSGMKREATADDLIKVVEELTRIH
Test: NEK7 NanoBiT degradation assay in Cal51 NEK7 NanoBiT cell line
Type: cell-based
Details: NEK7 degradation, Cal51 NEK7 NanoBiT cells, 24 hours; read-out: NanoBiT DC50
parameter: DC50

// query For O=C1CCC(c2c(Cl)cc(CNC(=O)C3(c4ccccc4)CCC3)cc2Cl)C(=O)N1 (stereo not shown) , what is its reported DC50?
// result ≤ 0.1 µM

// query What value of DC50 has been reported for the following molecule? CC(C)(C(=O)NCc1cc(Cl)c(C2CCC(=O)NC2=O)c(Cl)c1)c1c(F)cccc1F (stereo not shown)
// result ≤ 0.1 µM

// query // lookup DC50 for CC(C)(C(=O)NCc1cc(Cl)c(C2CCC(=O)NC2=O)c(Cl)c1)c1c(F)cncc1F (stereo not shown)
// result ≤ 0.1 µM

// query Quick one: DC50 of CC(C)(C(=O)NCc1cc(Cl)c(C2CCC(=O)NC2=O)c(Cl)c1)c1ccc(CC#N)nn1 (stereo not shown) ?
// result 0.1 to 1 µM

###

Biological target: NEK7 (Homo sapiens (Human), UniProt Q8TDX7+Q96SW2)
Assay: NEK7 NanoBiT degradation assay in Cal51 NEK7 NanoBiT cell line
Type: cell-based
Conditions: CAL-51; Cal51 NEK7 NanoBiT cells, 24 hours; read-out: NEK7 NanoBiT Dmax
Please respond with reported Dmax for every item in the list.
Give just the numeric value; % need not be written.

// query Query (compound): Cc1cncnc1C(C)(C)C(=O)NCc1cc(Cl)c(C2CCC(=O)NC2=O)c(Cl)c1 (stereo not shown) ; field requested: Dmax
// result 91

// query Data request, read-out Dmax, for Cn1ncc(C(C)(C)C(=O)NCc2cc(Cl)c(C3CCC(=O)NC3=O)c(Cl)c2)cc1=O (stereo not shown)
// result 85

// query Dmax value for entry COc1ccc(C(C)(C)C(=O)NCc2cc(F)c(C3CCC(=O)NC3=O)c(Cl)c2)nc1 (stereo not shown)
// result 87

// query Requested field: Dmax. Item: CC(C)(C(=O)NCc1cc(Cl)c(C2CCC(=O)NC2=O)c(Cl)c1)c1cc(C(F)F)ncn1 (stereo not shown)
// result 79

// query # get_value(readout='Dmax', item= CC(C)(C(=O)NCc1cc(Cl)c(C2CCC(=O)NC2=O)c(Cl)c1)c1ccncc1 (stereo not shown) )
// result 92

// query Dear colleague, I am looking for the recorded Dmax of the following compound: CC(F)(F)c1cnc(C(C)(C)C(=O)NCc2cc(F)c(C3CCC(=O)NC3=O)c(Cl)c2)cn1 (stereo not shown)
// result 54

// query Look at this compound and give its reported Dmax. Cc1cnc(C(C)(C)C(=O)NCc2cc(Cl)c(C3CCC(=O)NC3=O)c(Cl)c2)nc1 (stereo not shown)
// result 89

// query May I ask what Dmax has been recorded for CC(C)(C(=O)NCc1cc(Cl)c(C2CCC(=O)NC2=O)c(Cl)c1)c1cccc(C#N)c1 (stereo not shown) ?
// result 94

// query Return reported Dmax; argument: CC(C)(C(=O)NCc1cc(Cl)c(C2CCC(=O)NC2=O)c(Cl)c1)c1cnccn1 (stereo not shown)
// result 69

// query Recorded Dmax for CC(C)(C(=O)NCc1cc(Cl)c(C2CCC(=O)NC2=O)c(Cl)c1)c1cscn1 (stereo not shown) , please?
// result 61

// query Need Dmax of Cn1ncc2ccc(C3(C(=O)NCc4cc(Cl)c(C5CCC(=O)NC5=O)c(Cl)c4)CC(=O)C3)cc21 (stereo not shown) , thanks.
// result 93

// query Fill in: Dmax of CC(C)(C(=O)NCc1cc(Cl)c(C2CCC(=O)NC2=O)c(Cl)c1)c1cccc(F)c1 (stereo not shown) is ___
// result 96

// query So what's the measured Dmax for this one? CCOc1cnc(C(C)(C)C(=O)NCc2cc(F)c(C3CCC(=O)NC3=O)c(Cl)c2)cn1 (stereo not shown)
// result 93

// query Item under review: CC(C)(C(=O)NCc1cc(Cl)c(C2CCC(=O)NC2=O)c(Cl)c1)c1cc2ncccc2cn1 (stereo not shown) . Reported Dmax?
// result 94

// query # query: Dmax of entry Cc1cc(C(C)(C)C(=O)NCc2cc(Cl)c(C3CCC(=O)NC3=O)c(Cl)c2)no1 (stereo not shown)
// result 86

// query Quick check: Dmax of Cc1ncc(C(C)(C)C(=O)NCc2cc(Cl)c(C3CCC(=O)NC3=O)c(Cl)c2)o1 (stereo not shown) ?
// result 78

###

Target: NEK7 (Homo sapiens (Human), UniProt Q8TDX7+Q96SW2)
Assay: NEK7 NanoBiT degradation assay in Cal51 NEK7 NanoBiT cell line
Type: cell-based
Settings: Cal51 NEK7 NanoBiT cells, 24 hours; read-out: NEK7 NanoBiT DC50
Please provide measured DC50 for the entries that follow.
Write the number in nM without appending the unit.

// query Sample Cc1cc(C(C)(C)C(=O)NCc2cc(Cl)c(C3CCC(=O)NC3=O)c(Cl)c2)nn1C (centres unmarked) — what was its DC50?
// result 20

// query Suppose we examine the compound CC(C)(C(=O)NCc1cc(Cl)c(C2CCC(=O)NC2=O)c(Cl)c1)c1cccnc1 (centres unmarked) ; what DC50 value has been reported?
// result 8

// query Suppose we examine the compound O=C1CCC(c2c(Cl)cc(CNC(=O)C3(c4ccncc4)CCCC3)cc2Cl)C(=O)N1 (centres unmarked) ; what DC50 value has been reported?
// result 3

// query Which value of DC50 has been reported for Cn1ccc(C(C)(C)C(=O)NCc2cc(Cl)c(C3CCC(=O)NC3=O)c(Cl)c2)n1 (centres unmarked) in the records?
// result 51

// query Quick one: DC50 for CC(C)(C(=O)NCc1cc(Cl)c(C2CCC(=O)NC2=O)c(Cl)c1)c1ccc(OC(F)(F)F)nn1 (centres unmarked) ?
// result 8

// query Sample CC(C)(C(=O)NCc1cc(Cl)c(C2CCC(=O)NC2=O)c(Cl)c1)c1ccc2[nH]ncc2c1 (centres unmarked) — what was its DC50?
// result 0.5

// query Look at this compound and give its reported DC50. Cc1ccc(C(C)(C)C(=O)NCc2cc(F)c(C3CCC(=O)NC3=O)c(Cl)c2)nn1 (centres unmarked)
// result 190

// query DC50 lookup needed for CC(C)(C(=O)NCc1cc(Cl)c(C2CCC(=O)NC2=O)c(Cl)c1)c1cc2ocnc2cn1 (centres unmarked) , thanks.
// result 5

###

Biological target: NEK7 (Homo sapiens (Human), UniProt Q8TDX7+Q96SW2)
Assay: NEK7 NanoBiT degradation assay in Cal51 NEK7 NanoBiT cell line
Assay type: cell-based
Details: CAL-51; NEK7 degradation, Cal51 NEK7 NanoBiT cells, 24 hours; read-out: NanoBiT Dmax
Provide the recorded Dmax for the entries that follow.

// query For CC1(C(=O)NCc2cc(Cl)c(C3CCC(=O)NC3=O)c(Cl)c2)COc2ccccc2O1 (stereo not shown) , what is its reported Dmax?
// result > 75%

// query Could you tell me which Dmax is on file for CC(C)(C(=O)NCc1cc(Cl)c(C2CCC(=O)NC2=O)c(Cl)c1)c1cnc(OC(F)F)cn1 (stereo not shown) ?
// result > 75%

// query Entry CC(C)(C(=O)NCc1ccc(C2CCC(=O)NC2=O)c(Cl)c1)c1ccc(OC(F)(F)F)cc1 (stereo not shown) has what Dmax?
// result > 75%

// query Dmax value for entry COCc1cnc(C(C)(C)C(=O)NCc2cc(Cl)c(C3CCC(=O)NC3=O)c(Cl)c2)nc1 (stereo not shown)
// result 50 to 75%

###

Provide the reported Dmax of each item.
Biological target: NEK7 (Homo sapiens (Human), UniProt Q8TDX7+Q96SW2)
Assay: NEK7 NanoBiT degradation assay in Cal51 NEK7 NanoBiT cell line
Assay type: cell-based
Details: CAL-51; NEK7 degradation, Cal51 NEK7 NanoBiT cells, 24 hours; read-out: NanoBiT Dmax

// query GET /values?readout=Dmax&system=NEK7 (Homo sapiens (Human), UniProt Q8TDX7+Q96SW2)&item= O=C1CCC(c2c(Cl)cc(CNC(=O)C3(c4ccc(F)cc4)COC3)cc2Cl)C(=O)N1 (centres unmarked)
// result > 75%

// query Form: Entry = CC(C)(C(=O)NCc1cc(Cl)c(C2CCC(=O)NC2=O)c(C#N)c1)c1ccccc1 (centres unmarked) | System = NEK7 (Homo sapiens (Human), UniProt Q8TDX7+Q96SW2) | Dmax = ____
// result 50 to 75%

// query Identify the measured Dmax of CC(C)(C(=O)NCc1cc(Cl)c(C2CCC(=O)NC2=O)c(Cl)c1)c1cnc(C(F)F)cn1 (centres unmarked) for NEK7 (Homo sapiens (Human), UniProt Q8TDX7+Q96SW2).
// result > 75%

// query What Dmax appears in the records for this compound with NEK7 (Homo sapiens (Human), UniProt Q8TDX7+Q96SW2)? O=C1CCC(c2ccc(CNC(=O)C3(c4ccc(F)cc4)CCOCC3)cc2Cl)C(=O)N1 (centres unmarked)
// result > 75%

// query Look up Dmax with NEK7 (Homo sapiens (Human), UniProt Q8TDX7+Q96SW2) for this compound: CC(C)(C(=O)NCc1cc(Cl)c(C2CCC(=O)NC2=O)c(Cl)c1)c1cncc(F)c1 (centres unmarked)
// result > 75%

// query Provide the documented Dmax with NEK7 (Homo sapiens (Human), UniProt Q8TDX7+Q96SW2) as the system for CC(C)(C(=O)NCc1cc(Cl)c(C2CCC(=O)NC2=O)c(Cl)c1)c1ccn(CC(F)(F)F)c(=O)c1 (centres unmarked)
// result > 75%

// query Find the measured Dmax: item CC(F)(F)c1ccc(C(C)(C)C(=O)NCc2cc(F)c(C3CCC(=O)NC3=O)c(Cl)c2)nn1 (centres unmarked) , target or system NEK7 (Homo sapiens (Human), UniProt Q8TDX7+Q96SW2).
// result 50 to 75%

// query # value lookup — system NEK7 (Homo sapiens (Human), UniProt Q8TDX7+Q96SW2), readout Dmax, item CC(C)(C(=O)NCc1cc(Cl)c(C2CCC(=O)NC2=O)c(Cl)c1)c1ccc2[nH]cnc2c1 (centres unmarked)
// result > 75%
